# Tested on: NCI-H460
# protocol-description: Growth inhibition of human NCI-H460 cells after 48 hrs by sulforhodamine B assay
# Format: functional
result-type: GI

Prompt: Fill blank: measured GI of the compound COc1ccc(/C=C/C2CC=CC(=O)N2)c(OC)c1 (stereo unspecified) is ____.
Response: >964.1 µM

Prompt: Fill blank: measured GI of the compound COc1cc(OC)c(OC)cc1/C=C/C1CC=CC(=O)N1 (stereo unspecified) is ____.
Response: >864.1 µM

Prompt: Fill blank: measured GI of the compound COc1ccc(C2CC(=O)C=CO2)cc1 (stereo unspecified) is ____.
Response: 192.8 µM

Prompt: Fill blank: measured GI of the compound O=C1C=CCC(/C=C/c2ccc(C(F)(F)F)cc2)O1 (racemic) is ____.
Response: 476.9 µM

Prompt: Fill blank: measured GI of the compound COc1ccc(C2CC(=O)C(I)=CO2)cc1 (stereo unspecified) is ____.
Response: 74.6 µM

Prompt: Fill blank: measured GI of the compound COc1ccc(/C=C/C2CC=CC(=O)O2)cc1 (racemic) is ____.
Response: 28.3 µM

---

# Tested on: 786-0
# protocol-description: Growth inhibition of human 786-0 cells after 48 hrs by sulforhodamine B assay
# Format: functional
result-type: log10(GI) (log10 of the value in µM)
// do not treat as linear: log10 of GI, unit µM

Prompt: Fill blank: measured log10(GI) of the molecule COc1cc(/C=C/C2CC(=O)C=CO2)cc(OC)c1OC (centres undefined) is ____.
Response: 2.10

Prompt: Fill blank: measured log10(GI) of the molecule O=C1C=CCC(/C=C/c2ccccc2C(F)(F)F)N1 (centres undefined) is ____.
Response: 2.09

Prompt: Fill blank: measured log10(GI) of the molecule COc1ccc(/C=C/C2CC=CC(=O)O2)cc1OC (racemic) is ____.
Response: 1.04

Prompt: Fill blank: measured log10(GI) of the molecule O=C1C=COC(/C=C/c2ccc(C(F)(F)F)cc2)C1 (centres undefined) is ____.
Response: 1.60

Prompt: Fill blank: measured log10(GI) of the molecule COc1cccc2c1C(=O)c1c(O)c3c(c(O)c1C2=O)C[C@@](O)(C(=O)CO)C[C@@H]3O[C@H]1C[C@H](N)[C@H](O)[C@H](C)O1 [DOXORUBICIN] is ____.
Response: 0.32

Prompt: Fill blank: measured log10(GI) of the molecule O=C1C=COC(/C=C/c2ccccc2)C1 (centres undefined) is ____.
Response: 2.14

Prompt: Fill blank: measured log10(GI) of the molecule COc1ccc(C2CC(=O)C=CO2)cc1 (centres undefined) is ____.
Response: 2.29

Prompt: Fill blank: measured log10(GI) of the molecule COc1ccc(/C=C/C2CC=CC(=O)O2)cc1 (racemic) is ____.
Response: 1.33

---

# protocol-description: Growth inhibition of human HaCaT cells after 48 hrs by sulforhodamine B assay
# Type: cell-based
result-type: TGI at 48 h

Prompt: Fill blank: measured TGI at 48 h of the compound COc1cc(OC)c(OC)cc1/C=C/C1CC=CC(=O)N1 (stereo unspecified) is ____.
Response: > 864 µM

Prompt: Fill blank: measured TGI at 48 h of the compound COc1cc(/C=C/C2CC=CC(=O)N2)cc(OC)c1OC (stereo unspecified) is ____.
Response: > 864 µM

Prompt: Fill blank: measured TGI at 48 h of the compound COc1cc(OC)c(OC)cc1/C=C/C1CC=CC(=O)O1 (racemic) is ____.
Response: 46.9 µM

Prompt: Fill blank: measured TGI at 48 h of the compound COc1ccc(/C=C/C2CC=CC(=O)N2)cc1 (stereo unspecified) is ____.
Response: > 1090 µM

Prompt: Fill blank: measured TGI at 48 h of the compound O=C1C=CCC(/C=C/c2ccccc2C(F)(F)F)O1 (racemic) is ____.
Response: 82.7 µM

Prompt: Fill blank: measured TGI at 48 h of the compound O=C1C=COC(/C=C/c2ccc3c(c2)OCO3)C1 (stereo unspecified) is ____.
Response: 145 µM

Prompt: Fill blank: measured TGI at 48 h of the compound O=C1C=COC(/C=C/c2ccc(C(F)(F)F)cc2)C1 (stereo unspecified) is ____.
Response: 123 µM

Prompt: Fill blank: measured TGI at 48 h of the compound COc1ccc(-c2cc(=O)cco2)cc1 is ____.
Response: > 1240 µM

Prompt: Fill blank: measured TGI at 48 h of the compound O=C1C=CCC(/C=C/c2ccccc2)N1 (stereo unspecified) is ____.
Response: > 1250 µM

Prompt: Fill blank: measured TGI at 48 h of the compound COc1cc(/C=C/C2CC=CC(=O)O2)cc(OC)c1 (racemic) is ____.
Response: 8.8 µM

Prompt: Fill blank: measured TGI at 48 h of the compound COc1ccc(C2CC(=O)C(I)=CO2)cc1 (stereo unspecified) is ____.
Response: 53.3 µM

Prompt: Fill blank: measured TGI at 48 h of the compound O=C1C=COC(/C=C/c2ccccc2)C1 (stereo unspecified) is ____.
Response: 126 µM

Prompt: Fill blank: measured TGI at 48 h of the compound O=c1ccoc(/C=C/c2ccccc2)c1 is ____.
Response: 711 µM

Prompt: Fill blank: measured TGI at 48 h of the compound COc1ccc(/C=C/C2CC=CC(=O)N2)c(OC)c1 (stereo unspecified) is ____.
Response: > 964 µM

Prompt: Fill blank: measured TGI at 48 h of the compound COc1ccc(/C=C/C2CC=CC(=O)N2)cc1OC (stereo unspecified) is ____.
Response: > 964 µM

Prompt: Fill blank: measured TGI at 48 h of the compound COc1cc(/C=C/C2CC=CC(=O)N2)cc(OC)c1 (stereo unspecified) is ____.
Response: 212 µM
